Assay overview: Plasma PK from oral tick and flea efficacy studies of the C1 racemate
Format: in vivo, Mongrel dogs
Condition info: mongrel, dog, plasma, po, 20 mg/kg; Tick Efficacy study, oral 20 mg/kg
Measured metric: CL/F (mL/min/kg)

Compound | Readout number
O=C(CC(F)(F)F)N1CC2(C1)OCc1cc(C3=NSC(c4cc(Cl)c(F)c(Cl)c4)(C(F)(F)F)C3)ccc12 (racemic) [C1 racemate] | 0.693

* * *

Assay overview: Dog PK study of C1 (S) enantiomer, single oral dose, plasma and whole blood by chiral LC-MS/MS
Type: in vivo, beagle dogs
Condition info: dog, plasma; 768 hr; Beagle; oral 10 mg/kg; read-out: Plasma Concentration
Measured metric: concentration at 768 hr (ng/mL)

Molecule | Measured metric | Unit of measure | Readout number
O=C(CC(F)(F)F)N1CC2(C1)OCc1cc(C3=NS[C@@](c4cc(Cl)c(F)c(Cl)c4)(C(F)(F)F)C3)ccc12 [C1 (S) enantiomer] | concentration at 768 hr | ng/mL | 47

* * *

Assay overview: Dog PK study of C1 (S) enantiomer, single oral dose, plasma and whole blood by chiral LC-MS/MS
Type: in vivo, beagle dogs
Condition info: dog, whole blood; 1 hr; Beagle; oral 10 mg/kg; read-out: Blood Concentration
Experimental: This study assessed the in vivo pharmacokinetic (PK) behavior of a single oral dose of the C1 (S) enantiomer in beagle dogs (Charles River study# 20104466). Solutions of C1 (S) enantiomer were dosed by oral gavage (10mg/kg) to a group of dogs (n=3). […] Test article concentrations in plasma and whole blood were determined using liquid chromatography tandem mass spectrometry (LC-MS/MS). […] In this report, PK calculations were normalized to the measured dose solution concentrations. […]
Measured metric: concentration at 1 hr (ng/mL)

Compound | Measured metric | Readout number
O=C(CC(F)(F)F)N1CC2(C1)OCc1cc(C3=NS[C@@](c4cc(Cl)c(F)c(Cl)c4)(C(F)(F)F)C3)ccc12 [C1 (S) enantiomer] | concentration at 1 hr | 3210

* * *

Assay overview: Plasma PK from oral tick and flea efficacy studies of the C1 racemate
Format: in vivo, Mongrel dogs
Condition info: mongrel, dog, plasma, po, 20 mg/kg; Tick Efficacy study, oral 20 mg/kg
Measured metric: Tmax

Compound | Result
O=C(CC(F)(F)F)N1CC2(C1)OCc1cc(C3=NSC(c4cc(Cl)c(F)c(Cl)c4)(C(F)(F)F)C3)ccc12 (racemic) [C1 racemate] | 2 h

* * *

Assay overview: Plasma PK from oral tick and flea efficacy studies of the C1 racemate
Type: in vivo, Mongrel dogs
Condition info: mongrel, dog, plasma, po, 10 mg/kg, plasma; Mongrel; Tick Efficacy study, oral 10 mg/kg; read-out: t1/2 (converted)
Measured metric: half-life (days)

Compound | Readout number
O=C(CC(F)(F)F)N1CC2(C1)OCc1cc(C3=NSC(c4cc(Cl)c(F)c(Cl)c4)(C(F)(F)F)C3)ccc12 (racemic) [C1 racemate] | 16.4

* * *

Assay overview: Dog PK study of C1 (S) enantiomer, single oral dose, plasma and whole blood by chiral LC-MS/MS
Format: in vivo, beagle dogs
Condition info: dog, plasma; 0.25 hr; Beagle; oral 10 mg/kg; read-out: Plasma Concentration

Compound | concentration at 0.25 hr (ng/mL)
O=C(CC(F)(F)F)N1CC2(C1)OCc1cc(C3=NS[C@@](c4cc(Cl)c(F)c(Cl)c4)(C(F)(F)F)C3)ccc12 [C1 (S) enantiomer] | 291
